The measurements presented in this section are drawn from PubChem BioAssay AID248.

- Test system: L1210 leukemia ip in BDF1 mice, survival T/C
- Method notes: NCI In Vivo Anticancer Drug Screen. Data for tumor model L1210 Leukemia (intraperitoneal) in B6D2F1 (BDF1) mice
- Condition set: endpoint: mean survival time; dose: 50.0 mg/kg/injection; schedule: Q01DX009 (ip); vehicle: saline; higher = longer survival
- Experimental: The antitumor activity of compounds was measured in mice bearing transplantable tumors. Survival or tumor size were measured and the results are expressed as the measurement made in the treated group (T) divided by the measurement made in the vehicle treated control group (C). The tumor model used in this assay is L1210 Leukemia (intraperitoneal) in B6D2F1 (BDF1) mice
Inconclusive results and toxic doses are left out.
Measured parameter: T/C

{"Molecule": "CCN(CC)CCCOC(=O)c1ccc(N)cc1", "Test system": "L1210 leukemia ip in BDF1 mice, survival T/C", "T/C": "98 % of control"}
{"Molecule": "CCC1(C(C)Br)OC2=C(CC(C#N)(C#N)C(C#N)(C#N)C2)O1 (centres undefined)", "Test system": "L1210 leukemia ip in BDF1 mice, survival T/C", "T/C": "87 % of control"}
{"Molecule": "CC1(O)Cn2c(nc3nccnc32)S1 (centres undefined)", "Test system": "L1210 leukemia ip in BDF1 mice, survival T/C", "T/C": "96 % of control"}
{"Molecule": "CC(=O)C(C)=P(c1ccccc1)(c1ccccc1)c1ccccc1", "Test system": "L1210 leukemia ip in BDF1 mice, survival T/C", "T/C": "102 % of control"}
{"Molecule": "CCCCCCCCCCC/C=N/NC(=O)c1ccc[n+](C)c1", "Test system": "L1210 leukemia ip in BDF1 mice, survival T/C", "T/C": "108 % of control"}
{"Molecule": "CCOC(=O)/C(C#N)=N\\O", "Test system": "L1210 leukemia ip in BDF1 mice, survival T/C", "T/C": "111 % of control"}
{"Molecule": "NC(=O)c1[nH]cnc1[N+]1=NN(c2ccccc2)CC1", "Test system": "L1210 leukemia ip in BDF1 mice, survival T/C", "T/C": "102 % of control"}
{"Molecule": "O=C(O)CCSC(c1ccccc1)(c1ccccc1)c1ccccc1", "Test system": "L1210 leukemia ip in BDF1 mice, survival T/C", "T/C": "103 % of control"}

Kindly consider the entry below.
I am curious: what T/C value has been reported for CC(N)Cc1ccc2c(c1)OCO2 (centres undefined) ?
108 % of control

###

- System: L1210 leukemia ip in BDF1 mice, survival T/C
- Method notes: NCI In Vivo Anticancer Drug Screen. Data for tumor model L1210 Leukemia (intraperitoneal) in B6D2F1 (BDF1) mice
- Condition set: endpoint: mean survival time; dose: 50.0 mg/kg/injection; schedule: Q01DX001 (ip); vehicle: Klucel (hydroxypropylcellulose) (HPC); higher = longer survival
Inconclusive results and toxic doses are left out.
Each entry below carries its reported T/C.

# example entries with known answers
{"Molecule": "CCOC(=O)NN(C)c1c(C)cccc1C", "T/C": "96 % of control"}
{"Molecule": "Cc1nc(N)[nH]c(=O)c1CCCNC(=O)c1ccc(C(=O)CBr)cc1", "T/C": "90 % of control"}
{"Molecule": "COc1ccc2c(c1)CCC1C2=CCC2C1C(=O)CCC2(OC)OC (configuration not stated)", "T/C": "98 % of control"}
{"Molecule": "CNC1=CC(=O)C1(F)F", "T/C": "108 % of control"}
{"Molecule": "CCCCCCCCCCCCCCCOc1cccc(OCCCCCCCCCCCCCCC)c1", "T/C": "92 % of control"}

Report T/C for `Nc1ncnc2nc(-c3ccc(-c4ccccc4)cc3)[nH]c12` tested on L1210 leukemia ip in BDF1 mice, survival T/C.
92 % of control

Report T/C for `CN(C)c1ccc(/C=N\NC(=O)N/N=C/c2ccc(N(C)C)cc2)cc1` tested on L1210 leukemia ip in BDF1 mice, survival T/C.
97 % of control

###

- Test system: L1210 leukemia ip in BDF1 mice, survival T/C
- Method notes: NCI In Vivo Anticancer Drug Screen. Data for tumor model L1210 Leukemia (intraperitoneal) in B6D2F1 (BDF1) mice
- Condition set: endpoint: mean survival time; dose: 200.0 mg/kg/injection; schedule: Q04DX003 (ip); vehicle: Klucel (hydroxypropylcellulose) (HPC); higher = longer survival
- Description: The antitumor activity of compounds was measured in mice bearing transplantable tumors. Survival or tumor size were measured and the results are expressed as the measurement made in the treated group (T) divided by the measurement made in the vehicle treated control group (C). The tumor model used in this assay is L1210 Leukemia (intraperitoneal) in B6D2F1 (BDF1) mice
Inconclusive results and toxic doses are left out.
Measured parameter: T/C

# example entries with known answers
{"Compound": "CCC(C(=O)c1ccc(Cl)cc1)C(O)(C(F)(F)F)C(F)(F)F (stereo not drawn)", "Assay result": "98 % of control"}
{"Compound": "CCCCCCCCCCCCNC(=O)Nc1cccc(C)c1C", "Assay result": "95 % of control"}
{"Compound": "CCC1(O)CC2c3ccccc3CCN2CC1CC(C)C (stereo not drawn)", "Assay result": "107 % of control"}
{"Compound": "CC(=O)CC(=O)Nc1ccccc1Cl", "Assay result": "92 % of control"}
{"Compound": "CCN(CC)C(=O)Nc1ccc([N+](=O)[O-])cc1", "Assay result": "96 % of control"}
{"Compound": "O=C(O)CSCc1ccc([N+](=O)[O-])cc1", "Assay result": "100 % of control"}
{"Compound": "Cc1cccc(NS(=O)(=O)c2ccccc2)c1C", "Assay result": "93 % of control"}
{"Compound": "CC(C)CC(C)N (stereo not drawn)", "Assay result": "96 % of control"}
{"Compound": "Cc1ccnc(SCC(=O)O)n1", "Assay result": "96 % of control"}
{"Compound": "CC(C)(C)C(=O)Oc1ccc(C(C)(C)C)cc1", "Assay result": "98 % of control"}

I am curious: what T/C value has been reported for `COc1ccc(I)c([N+](=O)[O-])c1` ?
94 % of control

I am curious: what T/C value has been reported for COc1ccc(C2CCc3cc4c(cc3/C2=N/OC(C)=O)OCO4)cc1OC (stereo not drawn) ?
101 % of control

I am curious: what T/C value has been reported for `Cc1c(O)ccc2c1CCCC2` ?
107 % of control

###

- System: L1210 leukemia ip in BDF1 mice, survival T/C
- Method notes: NCI In Vivo Anticancer Drug Screen. Data for tumor model L1210 Leukemia (intraperitoneal) in B6D2F1 (BDF1) mice
- Condition set: endpoint: mean survival time; dose: 100.0 mg/kg/injection; schedule: Q01DX009 (ip); vehicle: saline; higher = longer survival
- Method: The antitumor activity of compounds was measured in mice bearing transplantable tumors. Survival or tumor size were measured and the results are expressed as the measurement made in the treated group (T) divided by the measurement made in the vehicle treated control group (C). The tumor model used in this assay is L1210 Leukemia (intraperitoneal) in B6D2F1 (BDF1) mice
Inconclusive results and toxic doses are left out.
Each entry below carries its reported T/C.

{"Compound": "CCOC(O)C(Cl)(Cl)Cl (stereo not given)", "Assay result": "103 % of control"}
{"Compound": "C1CCN(SN2CCCCC2)CC1", "Assay result": "100 % of control"}
{"Compound": "Cc1cc(Cl)c2cc(Cl)cc(Cl)c2n1", "Assay result": "89 % of control"}
{"Compound": "c1ccc2c(c1)CNCc1ccccc1-2", "Assay result": "96 % of control"}

I am curious: what T/C value has been reported for CC(O)C(C)(C)CO (stereo not given) ?
94 % of control

I am curious: what T/C value has been reported for `CC(=O)CC(=O)Nc1ccc(C)c(C)c1` ?
102 % of control

I am curious: what T/C value has been reported for `COc1ccc(NC(=O)Oc2ccc(Cl)c(C)c2)c(OC)c1` ?
118 % of control

I am curious: what T/C value has been reported for `CCOC(=O)c1c(N)sc2c1CCC2` ?
102 % of control

I am curious: what T/C value has been reported for `CCNCc1ccc(OC)cc1` ?
100 % of control

I am curious: what T/C value has been reported for CC#CCOCC(O)CCl (stereo not given) ?
94 % of control

I am curious: what T/C value has been reported for `O=C(O)CCSC(c1ccccc1)(c1ccccc1)c1ccccc1` ?
96 % of control

I am curious: what T/C value has been reported for NC(Cc1cc(Br)c(O)c(Br)c1)C(=O)O (stereo not given) ?
90 % of control

I am curious: what T/C value has been reported for `CCOS(C)(=O)=O` ?
101 % of control

I am curious: what T/C value has been reported for NC(CNO)C(=O)O (stereo not given) ?
101 % of control
